# Tested on: 422866-222-R5-J1-PDC complex spheroids viability
# ASSAY_NOTES: Anticancer human tumor 422866-222-R5-J1-PDC patient-derived pancreatic adenocarcinoma cell line growth inhibition [RAS]
# EXPERIMENTAL_CONDITIONS: second compound 0.316 µM; first compound 0.1 µM; hits give low values
OUTCOME_MEASURE: viability, T/C (%)

>  <COMPOUND>
CC(C)n1nc(-c2ccc3oc(N)nc3c2)c2c(N)ncnc21 + C=CC(=O)N1CCN(c2nc(OCC3CCCN3C)nc3c(F)c(-c4nc(N)cc(C)c4C(F)(F)F)c(Cl)cc23)C(C)C1

>  <ASSAY_RESULT>
10.5

$$$$
>  <COMPOUND>
CC(C)n1nc(-c2ccc3oc(N)nc3c2)c2c(N)ncnc21 + C#Cc1c(F)ccc2cc(O)cc(-c3ncc4c(N5CC6CCC(C5)N6)nc(OCC56CCCN5CC(F)C6)nc4c3F)c12

>  <ASSAY_RESULT>
61.7

$$$$
>  <COMPOUND>
NC1c2ccccc2OC12CCN(c1cnc3c(N4CCCc5ncccc54)n[nH]c3n1)CC2 (stereo not given) + C#Cc1c(F)ccc2cc(O)cc(-c3ncc4c(N5CC6CCC(C5)N6)nc(OCC56CCCN5CC(F)C6)nc4c3F)c12

>  <ASSAY_RESULT>
36.2

$$$$
>  <COMPOUND>
Nc1ccn(C2OC(CO)C(O)C2(F)F)c(=O)n1 (stereo not given) + C#Cc1c(F)ccc2cc(O)cc(-c3ncc4c(N5CC6CCC(C5)N6)nc(OCC56CCCN5CC(F)C6)nc4c3F)c12

>  <ASSAY_RESULT>
45.6

$$$$
>  <COMPOUND>
C=CC(=O)Nc1cc(Nc2nccc(-c3cn(C)c4ccccc34)n2)c(OC)cc1N(C)CCN(C)C + C#Cc1c(F)ccc2cc(O)cc(-c3ncc4c(N5CC6CCC(C5)N6)nc(OCC56CCCN5CC(F)C6)nc4c3F)c12

>  <ASSAY_RESULT>
56.5

$$$$
>  <COMPOUND>
C=CC(=O)Nc1cc(Nc2nccc(-c3cn(C)c4ccccc34)n2)c(OC)cc1N(C)CCN(C)C + C=CC(=O)N1CCN(c2nc(OCC3CCCN3C)nc3c(F)c(-c4nc(N)cc(C)c4C(F)(F)F)c(Cl)cc23)C(C)C1

>  <ASSAY_RESULT>
21.8

$$$$
>  <COMPOUND>
C=CC(=O)N1CCN(c2nc(OCC3CCCN3C)nc3c(F)c(-c4nc(N)cc(C)c4C(F)(F)F)c(Cl)cc23)C(C)C1 (stereo not given) + C#Cc1c(F)ccc2cc(O)cc(-c3ncc4c(N5CC6CCC(C5)N6)nc(OCC56CCCN5CC(F)C6)nc4c3F)c12

>  <ASSAY_RESULT>
19.2

$$$$
>  <COMPOUND>
CC(Nc1ccc2c(c1)OCCn1cc(N3C(=O)OCC3C(F)F)nc1-2)C(N)=O (stereo not given) + C#Cc1c(F)ccc2cc(O)cc(-c3ncc4c(N5CC6CCC(C5)N6)nc(OCC56CCCN5CC(F)C6)nc4c3F)c12

>  <ASSAY_RESULT>
38.6

$$$$
>  <COMPOUND>
CCC(CC)c1cc(NC2CCC(N)C2)n2nccc2n1 (stereo not given) + C=CC(=O)N1CCN(c2nc(OCC3CCCN3C)nc3c(F)c(-c4nc(N)cc(C)c4C(F)(F)F)c(Cl)cc23)C(C)C1

>  <ASSAY_RESULT>
22.3

$$$$
>  <COMPOUND>
CCN1CCN(Cc2ccc(Nc3ncc(F)c(-c4cc(F)c5nc(C)n(C(C)C)c5c4)n3)nc2)CC1 + C#Cc1c(F)ccc2cc(O)cc(-c3ncc4c(N5CC6CCC(C5)N6)nc(OCC56CCCN5CC(F)C6)nc4c3F)c12

>  <ASSAY_RESULT>
55

$$$$

---

# Test system: 422866-222-R5-J1-PDC complex spheroids viability
# ASSAY_NOTES: Anticancer human tumor 422866-222-R5-J1-PDC cell line growth inhibition [RAS];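 note: spheroids exposed to compounds for 7 days; 100% = DMSO vehicle control viability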
# EXPERIMENTAL_CONDITIONS: second compound 0.3 µM; first compound 0.1 µM; hits give low values

>  <COMPOUND>
CC1(O)CCCC1n1c(=O)c(C(F)F)cc2cnc(NC3CCN(S(C)(=O)=O)CC3)nc21 (configuration not stated) + CCn1c(-c2cc(N3CCN(C)CC3)cnc2C(C)OC)c2c3cc(ccc31)-c1csc(n1)CC(NC(=O)C1CC1C)C(=O)N1CCCC(N1)C(=O)OCC(C)(C)C2

>  <viability, T/C [%]>
21.1

$$$$
>  <COMPOUND>
C[C@@H](NC(=O)c1ncnc(N)c1Cl)c1ncc(C(=O)Nc2cc(C(F)(F)F)c(Cl)cn2)s1 + CCn1c(-c2cc(N3CCN(C)CC3)cnc2C(C)OC)c2c3cc(ccc31)-c1csc(n1)CC(NC(=O)C1CC1C)C(=O)N1CCCC(N1)C(=O)OCC(C)(C)C2

>  <viability, T/C [%]>
20.2

$$$$

---

List of viability, T/C values.
# Tested on: 422866-222-R5-J1-PDC complex spheroids viability
# ASSAY_NOTES: Anticancer human tumor 422866-222-R5-J1-PDC cell line growth inhibition [RAS];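 note: spheroids exposed to compounds for 7 days; 100% = DMSO vehicle control viability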
# EXPERIMENTAL_CONDITIONS: second compound 0.3 µM; first compound 0.316 µM; hits give low values

>  <MOLECULE>
C=CC(=O)N1CCN(c2nc(OCC3CCCN3C)nc3c(F)c(-c4nc(N)cc(C)c4C(F)(F)F)c(Cl)cc23)C(C)C1 (configuration not stated) + CCn1c(-c2cccnc2C(C)OC)c2c3cc(ccc31)N1CCOC(CC(NC(=O)C(C(C)C)N(C)C(=O)C3(F)CCN(C(=O)C#CC(C)(C)N(C)C)CC3)C(=O)N3CCCC(N3)C(=O)OCC(C)(C)C2)C1

>  <TARGET_SYSTEM>
422866-222-R5-J1-PDC complex spheroids viability

>  <viability, T/C (%)>
16.5

$$$$
>  <MOLECULE>
CC(=O)OC12COC1CC(O)C1(C)C(=O)C(O)C3=C(C)C(OC(=O)C(O)C(NC(=O)OC(C)(C)C)c4ccccc4)CC(O)(C(OC(=O)c4ccccc4)C21)C3(C)C (configuration not stated) + CCn1c(-c2cc(N3CCN(C)CC3)cnc2C(C)OC)c2c3cc(ccc31)-c1csc(n1)CC(NC(=O)C1CC1C)C(=O)N1CCCC(N1)C(=O)OCC(C)(C)C2

>  <TARGET_SYSTEM>
422866-222-R5-J1-PDC complex spheroids viability

>  <viability, T/C (%)>
18.4

$$$$
>  <MOLECULE>
CCN1CCN(Cc2ccc(Nc3ncc(F)c(-c4cc(F)c5nc(C)n(C(C)C)c5c4)n3)nc2)CC1 + CCn1c(-c2cc(N3CCN(C)CC3)cnc2C(C)OC)c2c3cc(ccc31)-c1csc(n1)CC(NC(=O)C1CC1C)C(=O)N1CCCC(N1)C(=O)OCC(C)(C)C2

>  <TARGET_SYSTEM>
422866-222-R5-J1-PDC complex spheroids viability

>  <viability, T/C (%)>
25.9

$$$$
>  <MOLECULE>
CC1(O)CCCC1n1c(=O)c(C(F)F)cc2cnc(NC3CCN(S(C)(=O)=O)CC3)nc21 (configuration not stated) + CCn1c(-c2cccnc2C(C)OC)c2c3cc(ccc31)N1CCOC(CC(NC(=O)C(C(C)C)N(C)C(=O)C3(F)CCN(C(=O)C#CC(C)(C)N(C)C)CC3)C(=O)N3CCCC(N3)C(=O)OCC(C)(C)C2)C1

>  <TARGET_SYSTEM>
422866-222-R5-J1-PDC complex spheroids viability

>  <viability, T/C (%)>
19

$$$$
>  <MOLECULE>
C=CC(=O)Nc1cc(Nc2nccc(-c3cn(C)c4ccccc34)n2)c(OC)cc1N(C)CCN(C)C + CCn1c(-c2cccnc2C(C)OC)c2c3cc(ccc31)N1CCOC(CC(NC(=O)C(C(C)C)N(C)C(=O)C3(F)CCN(C(=O)C#CC(C)(C)N(C)C)CC3)C(=O)N3CCCC(N3)C(=O)OCC(C)(C)C2)C1

>  <TARGET_SYSTEM>
422866-222-R5-J1-PDC complex spheroids viability

>  <viability, T/C (%)>
13.7

$$$$
>  <MOLECULE>
CC(C)NCC(C(=O)N1CCN(c2ncnc3c2C(C)CC3O)CC1)c1ccc(Cl)cc1 (configuration not stated) + CCn1c(-c2cc(N3CCN(C)CC3)cnc2C(C)OC)c2c3cc(ccc31)-c1csc(n1)CC(NC(=O)C1CC1C)C(=O)N1CCCC(N1)C(=O)OCC(C)(C)C2

>  <TARGET_SYSTEM>
422866-222-R5-J1-PDC complex spheroids viability

>  <viability, T/C (%)>
14.2

$$$$
>  <MOLECULE>
O=C(c1ccc(F)c(F)c1Nc1ccc(I)cc1F)N1CC(O)([C@@H]2CCCCN2)C1 + CCn1c(-c2cccnc2C(C)OC)c2c3cc(ccc31)N1CCOC(CC(NC(=O)C(C(C)C)N(C)C(=O)C3(F)CCN(C(=O)C#CC(C)(C)N(C)C)CC3)C(=O)N3CCCC(N3)C(=O)OCC(C)(C)C2)C1

>  <TARGET_SYSTEM>
422866-222-R5-J1-PDC complex spheroids viability

>  <viability, T/C (%)>
12.4

$$$$
>  <MOLECULE>
NC1c2ccccc2OC12CCN(c1cnc3c(N4CCCc5ncccc54)n[nH]c3n1)CC2 (configuration not stated) + CCn1c(-c2cccnc2C(C)OC)c2c3cc(ccc31)N1CCOC(CC(NC(=O)C(C(C)C)N(C)C(=O)C3(F)CCN(C(=O)C#CC(C)(C)N(C)C)CC3)C(=O)N3CCCC(N3)C(=O)OCC(C)(C)C2)C1

>  <TARGET_SYSTEM>
422866-222-R5-J1-PDC complex spheroids viability

>  <viability, T/C (%)>
13.9

$$$$
>  <MOLECULE>
C=CC(=O)N1CCN(c2nc(OCC3CCCN3C)nc3c(F)c(-c4nc(N)cc(C)c4C(F)(F)F)c(Cl)cc23)C(C)C1 (configuration not stated) + CCn1c(-c2cc(N3CCN(C)CC3)cnc2C(C)OC)c2c3cc(ccc31)-c1csc(n1)CC(NC(=O)C1CC1C)C(=O)N1CCCC(N1)C(=O)OCC(C)(C)C2

>  <TARGET_SYSTEM>
422866-222-R5-J1-PDC complex spheroids viability

>  <viability, T/C (%)>
19.5

$$$$
>  <MOLECULE>
CC(Nc1ccc2c(c1)OCCn1cc(N3C(=O)OCC3C(F)F)nc1-2)C(N)=O (configuration not stated) + CCn1c(-c2cccnc2C(C)OC)c2c3cc(ccc31)N1CCOC(CC(NC(=O)C(C(C)C)N(C)C(=O)C3(F)CCN(C(=O)C#CC(C)(C)N(C)C)CC3)C(=O)N3CCCC(N3)C(=O)OCC(C)(C)C2)C1

>  <TARGET_SYSTEM>
422866-222-R5-J1-PDC complex spheroids viability

>  <viability, T/C (%)>
5.84

$$$$
>  <MOLECULE>
C=CC(=O)Nc1cc(Nc2nccc(-c3cn(C)c4ccccc34)n2)c(OC)cc1N(C)CCN(C)C + CCn1c(-c2cc(N3CCN(C)CC3)cnc2C(C)OC)c2c3cc(ccc31)-c1csc(n1)CC(NC(=O)C1CC1C)C(=O)N1CCCC(N1)C(=O)OCC(C)(C)C2

>  <TARGET_SYSTEM>
422866-222-R5-J1-PDC complex spheroids viability

>  <viability, T/C (%)>
16.5

$$$$
>  <MOLECULE>
CCC(CC)c1cc(NC2CCC(N)C2)n2nccc2n1 (configuration not stated) + CCn1c(-c2cc(N3CCN(C)CC3)cnc2C(C)OC)c2c3cc(ccc31)-c1csc(n1)CC(NC(=O)C1CC1C)C(=O)N1CCCC(N1)C(=O)OCC(C)(C)C2

>  <TARGET_SYSTEM>
422866-222-R5-J1-PDC complex spheroids viability

>  <viability, T/C (%)>
25.7

$$$$

// provenance: PubChem BioAssay AID2060901
